Molecular target: ITK (Homo sapiens, UniProt Q08881)
Sequence (Q08881 whole entry): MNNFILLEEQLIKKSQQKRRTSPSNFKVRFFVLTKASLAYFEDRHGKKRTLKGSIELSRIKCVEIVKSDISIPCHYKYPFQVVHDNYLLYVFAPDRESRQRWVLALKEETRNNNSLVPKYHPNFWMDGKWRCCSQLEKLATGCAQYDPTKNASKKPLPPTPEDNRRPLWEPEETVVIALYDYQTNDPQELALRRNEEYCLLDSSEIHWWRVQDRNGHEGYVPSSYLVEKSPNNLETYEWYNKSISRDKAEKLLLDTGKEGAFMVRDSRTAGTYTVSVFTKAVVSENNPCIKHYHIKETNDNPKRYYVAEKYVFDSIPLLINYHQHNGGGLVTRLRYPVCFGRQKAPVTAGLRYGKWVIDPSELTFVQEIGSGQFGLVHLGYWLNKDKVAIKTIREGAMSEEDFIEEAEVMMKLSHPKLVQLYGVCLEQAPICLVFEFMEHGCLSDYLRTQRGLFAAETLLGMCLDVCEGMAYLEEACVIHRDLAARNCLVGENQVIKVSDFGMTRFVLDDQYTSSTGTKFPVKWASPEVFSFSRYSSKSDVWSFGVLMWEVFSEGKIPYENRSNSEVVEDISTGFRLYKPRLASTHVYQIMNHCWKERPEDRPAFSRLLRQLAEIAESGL
Test: Inhibition of a panel of kinases, in vitro HotSpot kinase assay: ITK
Assay type: biochemical
Conditions: E compounds, Table 17
Listed here are molecules together with their documented IC50.

>>> df
                                   molecule   result
0  C=CC(=O)N1CCC[C@@H](Nc2cnc(C(N)=O)c(Nc3ccc(C4CCN(C5CCCC5)CC4)cc3)n2)[C@H]1C  ≤ 10 nM

QUERY: Fill in the blank: the reported IC50 of `C=CC(=O)N1CCC[C@@H](Nc2nnc(C(N)=O)c(Nc3cccc(-n4nccn4)c3)n2)C1` is ____.
RESULT: 10 to 100 nM

QUERY: Fill in the blank: the reported IC50 of Cn1cc(Nc2nc(N3CCCC(C)(NC(=O)c4ccc(C5CC5)cc4)C3)cnc2C(N)=O)cn1 (centres unmarked) is ____.
RESULT: > 10000 nM

QUERY: Fill in the blank: the reported IC50 of `C=CC(=O)N1CCC[C@@H](Nc2nnc(C(N)=O)c(Nc3cccc(Cl)c3)n2)C1` is ____.
RESULT: 10 to 100 nM

QUERY: Fill in the blank: the reported IC50 of `C=CC(=O)N1CCC[C@@H](Nc2nnc(C(N)=O)c(Nc3ccc(C4(C#N)CCCC4)cc3)n2)C1` is ____.
RESULT: ≤ 10 nM

QUERY: Fill in the blank: the reported IC50 of C[C@@H]1[C@H](NC(=O)c2ccc(C3CC3)cc2)CCCN1c1cnc(C(N)=O)c(Nc2ccc(OC3CCN(C)C3)cc2)n1 (some centres unmarked) is ____.
RESULT: 10 to 100 nM

###

Listed here are molecules together with their documented pIC50.
Target: ITK (Homo sapiens, UniProt Q08881)
Assay: Inhibition of a panel of kinases, in vitro HotSpot kinase assay: ITK
Type: biochemical
Details: E compounds, Table 17
pIC50: −log10 of the molar value.

>>> print(df.to_string())
                                   molecule                        study_target        result
0  C=CC(=O)N1CCC[C@@H](Nc2nnc(C(N)=O)c(Nc3ccc(C(C)(C)C#N)cc3)n2)C1 [Example E-49]  ITK (Homo sapiens, UniProt Q08881)        ≥ 8.00
1  C[C@@H]1[C@H](NC(=O)c2cccc(C(C)(C)O)c2)CCCN1c1cnc(C(N)=O)c(Nc2cnn(C)c2)n1 [Example E-145]  ITK (Homo sapiens, UniProt Q08881)  6.00 to 7.00
2  C=CC(=O)N1CCC[C@@H](Nc2nnc(C(N)=O)c(Nc3ccc(-c4ncccn4)cc3)n2)C1 [Example E-41]  ITK (Homo sapiens, UniProt Q08881)  7.00 to 8.00

Please examine the following record next.
QUERY: Fill in the blank: the reported pIC50 of C=CC(=O)N1CCC[C@@H](Nc2nnc(C(N)=O)c(Nc3ccc(CN(C(=O)OCc4ccccc4)[C@@H](C)C(C)(C)C)cc3)n2)C1 [Example E-56] is ____.
RESULT: 7.00 to 8.00

###

Biological target: LCK (Homo sapiens, UniProt P06239)
Sequence (P06239 whole entry): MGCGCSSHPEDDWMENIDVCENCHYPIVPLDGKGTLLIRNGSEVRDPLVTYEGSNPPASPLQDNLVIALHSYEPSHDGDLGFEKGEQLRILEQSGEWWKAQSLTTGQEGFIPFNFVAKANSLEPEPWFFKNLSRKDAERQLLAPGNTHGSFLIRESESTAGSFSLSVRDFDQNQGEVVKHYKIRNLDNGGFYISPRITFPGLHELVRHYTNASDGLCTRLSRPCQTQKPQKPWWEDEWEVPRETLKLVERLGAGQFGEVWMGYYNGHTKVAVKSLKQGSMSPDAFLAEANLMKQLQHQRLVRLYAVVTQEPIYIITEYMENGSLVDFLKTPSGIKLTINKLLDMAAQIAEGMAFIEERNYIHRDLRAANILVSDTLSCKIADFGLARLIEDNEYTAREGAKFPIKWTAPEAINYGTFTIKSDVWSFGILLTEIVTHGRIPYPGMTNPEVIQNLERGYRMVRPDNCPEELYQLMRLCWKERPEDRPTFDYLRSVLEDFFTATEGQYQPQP
Assay: Inhibition of a panel of kinases, in vitro HotSpot kinase assay: LCK
Assay type: biochemical
Details: Table 10, Formula A-I; 1 μM ATP; read-out: LCK (IC50)
pIC50: −log10 of the molar value.
Listed here are compounds together with their documented pIC50.

QUERY: Give LCK (Homo sapiens, UniProt P06239) pIC50 for `Cc1cc(Nc2nc(N3CCC[C@@H](NC(=O)NC4CCCCC4)C3)cnc2C(N)=O)sn1`
RESULT: 6.00 to 7.00

###

Biological target: ITK (Homo sapiens)
Assay: Inhibition of a panel of kinases, in vitro HotSpot kinase assay: ITK
Assay type: biochemical
Details: E compounds, Table 17
pIC50: −log10 of the molar value.
reported endpoint: pIC50

Some solved entries appear below for comparison.
                                   molecule        result
0  Cc1cc(C(=O)N[C@@H]2CCCN(c3cnc(C(N)=O)c(Nc4cnn(C)c4)n3)[C@@H]2C)ccc1C(C)(C)O [Example E-152]  6.00 to 7.00
1  C[C@@H]1[C@H](NC(=O)c2cc(C(C)(C)C)nn2C)CCCN1c1cnc(C(N)=O)c(Nc2cnn(C)c2)n1 [Example E-146]  6.00 to 7.00
2  C=CC(=O)N1CCC[C@H](N(C)c2nnc(C(N)=O)c(Nc3ccc(C(C)C)cc3)n2)C1 [Example E-27]  7.00 to 8.00
3  C=CC(=O)N1CC[C@@H](N(C)c2nnc(C(N)=O)c(Nc3ccc(C(O)(C(F)(F)F)C(F)(F)F)cc3)n2)C1 [Example E-16]        ≥ 8.00
4  C=CC(=O)N1CC[C@@H](N(C)c2cnc(C(N)=O)c(Nc3ccc(C4CCN(C)CC4)cc3)n2)C1 [Example E-115]        ≥ 8.00
5  C=CC(=O)N1CC[C@@H](N(C)c2nnc(C(N)=O)c(Nc3cc(C)ns3)n2)C1 [Example E-12]        ≥ 8.00

QUERY: Fill in the blank: the reported pIC50 of C[C@@H]1[C@H](NC(=O)c2ccc3oc(C4CC4)nc3c2)CCCN1c1cnc(C(N)=O)c(Nc2cnn(C)c2)n1 [Example E-139] is ____.
RESULT: 6.00 to 7.00

QUERY: Fill in the blank: the reported pIC50 of C=CC(=O)N1CCC[C@@H](Nc2nnc(C(N)=O)c(Nc3cccc(C)c3)n2)C1 [Example E-44] is ____.
RESULT: 7.00 to 8.00

###

Molecular target: UniProt:P06239
Assay: Inhibition of a panel of kinases, in vitro HotSpot kinase assay: LCK
Assay type: biochemical
Conditions: Table 12, Formula C-I; 1 μM ATP; read-out: LCK (IC50)
Structures can show the parent of a compound that is named as a salt.
Listed here are molecules together with their documented IC50.

Some solved entries appear below for comparison.
                                   molecule       result
0  C=CC(=O)N1CC[C@@H](Nc2nnc(C(N)=O)c(Nc3ccc(C(C)C)cc3)n2)C1  0.1 to 1 µM
1  Cc1cc(Nc2nc(N(C)CC3CCN(C(=O)c4ccccc4)CC3)cnc2C(N)=O)sn1   1 to 10 µM
2  Cc1cc(Nc2nc(N[C@H]3CCCN(C(=O)c4ccc(N(C)C)cc4)C3)cnc2C(N)=O)sn1      > 10 µM

QUERY: Fill in the blank: the reported IC50 of Cc1cc(Nc2nc(N[C@@H]3CCN(C(=O)c4ccccc4)C3)cnc2C(N)=O)sn1 [Example C-11, hydrochloride] is ____.
RESULT: 1 to 10 µM

QUERY: Fill in the blank: the reported IC50 of `Cc1cc(Nc2nc(N[C@H]3CCCN(C(=O)N(C)C)C3)cnc2C(N)=O)sn1` is ____.
RESULT: 0.1 to 1 µM

QUERY: Fill in the blank: the reported IC50 of `C=CC(=O)N1CC[C@H](Nc2nnc(C(N)=O)c(Nc3ccc(C(C)C)cc3)n2)C1` is ____.
RESULT: 0.1 to 1 µM

QUERY: Fill in the blank: the reported IC50 of `Cc1cc(Nc2nc(N[C@H]3CCCN(C(=O)c4ccccc4)C3)cnc2C(N)=O)sn1` is ____.
RESULT: > 10 µM

QUERY: Fill in the blank: the reported IC50 of `Cc1cc(Nc2nc(N[C@@H]3CCN(C(=O)N(C)C)C3)cnc2C(N)=O)sn1` is ____.
RESULT: 0.1 to 1 µM

QUERY: Fill in the blank: the reported IC50 of Cc1cc(Nc2nc(N[C@@H]3CCCN(C(=O)c4ccc(N(C)C)cc4)C3)cnc2C(N)=O)sn1 [Example C-7, hydrochloride] is ____.
RESULT: > 10 µM

QUERY: Fill in the blank: the reported IC50 of `C=CC(=O)N1CC[C@H](Nc2nnc(C(N)=O)c(Nc3cccc(C(=O)Nc4ccc(C(C)C)c(C)c4)c3)n2)C1` is ____.
RESULT: > 10 µM

QUERY: Fill in the blank: the reported IC50 of `Cc1cc(Nc2nc(N(C)CC3CCN(C(=O)N(C)C)CC3)cnc2C(N)=O)sn1` is ____.
RESULT: 1 to 10 µM

QUERY: Fill in the blank: the reported IC50 of `Cc1cc(Nc2nc(N[C@@H]3CCCN(C(=O)c4ccccc4)C3)cnc2C(N)=O)sn1` is ____.
RESULT: > 10 µM

QUERY: Fill in the blank: the reported IC50 of `C=CC(=O)N1CC[C@@H](Nc2nnc(C(N)=O)c(Nc3cccc(C(=O)Nc4ccc(C(C)C)c(C)c4)c3)n2)C1` is ____.
RESULT: > 10 µM

The measurements presented in this section are drawn from patent US20210070748A1.
